These entries and their values trace back to ChEMBL document CHEMBL4842341.

assay: Drug concentration in tumor of NSG mouse xenografted with human SKOV3 cells at 125 mg/kg, po BID measured after 12 hrs by LC-MS analysis; format: ADME, organism-based, Neoplasm, SK-OV-3; details: read-out: Drug uptake
Experimental Endpoint: concentration at 12 h (nM)
Answer with a number only, understood to be in nM.

Query: Would you kindly share the measured concentration at 12 h for C[C@H](C(=O)Nc1ccc(Cl)cc1)[C@H]1CC[C@@H](c2ccnc3ccc(F)cc32)CC1 ?
Reply: 610

###

Quick reference for log10 concentration at 120 h among some molecules
test: in vivo; settings: NSG, mouse, plasma, po, 125 mg/kg
Parameter value (number): base-10 log of concentration at 120 h in nM.

Study these solved cases before continuing.
{"Smiles String": "CC[C@@H](NC(=O)c1ccc(Cl)c(F)c1)[C@H]1[C@@H]2C[C@@H](n3cnc4cc(F)c(F)cc43)C[C@@H]21", "log10 concentration at 120 h": 3.61}
{"Smiles String": "CC[C@@H](NC(=O)c1ccc(Cl)cc1)[C@H]1[C@@H]2C[C@@H](n3cnc4ccc(Cl)cc43)C[C@@H]21", "log10 concentration at 120 h": 2.70}
{"Smiles String": "CC[C@@H](NC(=O)c1ccc(Cl)cc1)[C@H]1[C@@H]2C[C@@H](n3cnc4ccc(C#N)cc43)C[C@@H]21", "log10 concentration at 120 h": 4.00}

Query: Reported log10 concentration at 120 h, molecule C[C@H](C(=O)Nc1ccc(Cl)cc1)[C@H]1CC[C@@H](c2ccnc3ccc(F)cc32)CC1 : ____
Reply: 1.30

Query: Given C[C@@H](NC(=O)c1ccc(Cl)cc1)[C@H]1[C@@H]2C[C@@H](n3cnc4cc(F)c(F)cc43)C[C@@H]21 , state its recorded log10 concentration at 120 h.
Reply: 3.45

Query: Request the reported log10 concentration at 120 h associated with CC[C@@H](NC(=O)c1ccc(Cl)cc1)[C@H]1[C@@H]2C[C@@H](n3c(C)nc4ccc(F)cc43)C[C@@H]21
Reply: 1.00

###

assay: Drug concentration in plasma of NSG mouse xenografted with human SKOV3 cells at 3 mg/kg, po QD measured at 24 hrs post dose; assay type: ADME, organism-based, SK-OV-3
Experimental Endpoint: concentration at 24 h (nM)
Express the result in nM but write the number alone.

Query: Query (compound): CCC(c1nc2cc(Cl)ccc2[nH]1)[C@H]1[C@@H]2C[C@@H](c3ccnc4ccc(F)cc34)C[C@@H]21 (stereo partly specified) ; field requested: concentration at 24 h
Reply: 1900

###

assay: in vivo; settings: NSG, mouse, tumor, po, 125 mg/kg
Parameter concentration at 120 h: see the listing below.
Only the number, expressed in µM, is required.

{"Molecule": "CC[C@@H](NC(=O)c1ccc(Cl)cc1)[C@H]1[C@@H]2C[C@@H](n3cnc4ccc(F)cc43)C[C@@H]21 (stereo in doubt; 56)", "Experimental Endpoint": "concentration at 120 h", "Units Symbol": "µM", "Endpoint Value": 2.3}

Kindly consider the entry below.
Query: Reported concentration at 120 h for CC[C@@H](NC(=O)c1ccc(C#N)cc1)[C@H]1[C@@H]2C[C@@H](n3cnc4cc(F)c(F)cc43)C[C@@H]21 : what is it?
Reply: 52

###

assay: Drug concentration in tumor of NSG mouse xenografted with human SKOV3 cells at 200 mg/kg, po BID measured after 12 hrs by LC-MS analysis; format: ADME, organism-based, Neoplasm, SK-OV-3; conditions: read-out: Drug uptake
Experimental Endpoint: concentration at 12 h (µM)
Enter your answer as a number in µM; do not include the unit.

Query: concentration at 12 h for NS(=O)(=O)NCCNc1nonc1C(=NO)Nc1ccc(F)c(Br)c1 ?
Reply: 5

###

# Vd per record follows
assay: in vivo; conditions: CD1, mouse, iv, 0.3 mg/kg
The figure you give is taken to be in L/kg; do not add the unit.

As a guide, the following entries are already answered.
{"Compound": "CCC(NC(=O)c1ccc(Cl)cc1)[C@H]1[C@@H]2C[C@@H](n3cc(C4CC4)nn3)C[C@@H]21 (stereo partly drawn)", "Units Symbol": "L/kg", "Vd": 1.04}
{"Compound": "CCC(NC(=O)c1ccc(Cl)cc1)[C@@H]1[C@@H]2C[C@H](Oc3ccnc4ccc(F)cc34)C[C@@H]21 (stereo partly drawn)", "Units Symbol": "L/kg", "Vd": 0.27}

Consider the additional compound presented here.
Query: Request the reported Vd associated with CC(NC(=O)c1ccc(C#N)cc1)[C@H]1[C@@H]2C[C@@H](Oc3ncnc4cc(F)ccc34)C[C@@H]21 (stereo partly drawn)
Reply: 0.31

###

experiment: in vivo; settings: CD-1, mouse, po, 10 mg/kg
Experimental Endpoint: bioavailability at 24 h (%)
// units = %; emit number, no label

{"Smiles String": "NS(=O)(=O)NCCNc1nonc1C(=NO)Nc1ccc(F)c(Br)c1", "bioavailability at 24 h [%]": 50}

Read the next record carefully.
Query: Consider the compound C[C@H](C(=O)Nc1ccc(Cl)cc1)[C@H]1CC[C@@H](c2ccnc3ccc(F)cc32)CC1 and give its measured bioavailability at 24 h.
Reply: 39

###

assay: Drug concentration in tumor of NSG mouse xenografted with human SKOV3 cells at 3 mg/kg, po QD measured at 24 hrs post dose; assay type: ADME, organism-based, Neoplasm, SK-OV-3; details: read-out: Drug uptake
Experimental Endpoint: concentration at 24 h (nM)
Answer in nM, number only, no unit symbol.

Query: Suppose we examine the compound CCC(c1nc2cc(Cl)ccc2[nH]1)[C@H]1[C@@H]2C[C@@H](c3ccnc4ccc(F)cc34)C[C@@H]21 (stereo partly specified) ; what concentration at 24 h value has been reported?
Reply: 500

###

Quick list: clearance at 24 h per entry.
assay: in vivo; conditions: CD-1, mouse, iv, 0.3 mg/kg

{"Smiles String": "NS(=O)(=O)NCCNc1nonc1C(=NO)Nc1ccc(F)c(Br)c1", "clearance at 24 h": "53.3 mL/min/kg"}

Next:
Query: Name the recorded clearance at 24 h for C[C@H](C(=O)Nc1ccc(Cl)cc1)[C@H]1CC[C@@H](c2ccnc3ccc(F)cc32)CC1 .
Reply: 33.3 mL/min/kg

###

assay: in vitro; conditions: human, liver microsomes
Rule: CLint scaled at 0.75 h, 1 µM under 20 mL/min/kg gives FALSE, otherwise TRUE.

For orientation, consider the following solved cases.
{"Compound": "CCC(NC(=O)c1ccc(Cl)cc1)[C@@H]1[C@@H]2C[C@H](Oc3ccnc4cccnc34)C[C@@H]21 (stereo partly drawn)", "Group Label": "FALSE"}
{"Compound": "O=C(Nc1ccc(Cl)cc1)C1CC12CCC(Oc1ccnc3ccccc13)CC2 (stereo not drawn)", "Group Label": "TRUE"}
{"Compound": "O=C(NC[C@H]1[C@H]2C[C@H](Oc3ccnc4ccc(F)cc34)C[C@@H]12)c1ccc(Cl)cc1", "Group Label": "TRUE"}
{"Compound": "O=C(C[C@H]1CC[C@@H](Oc2ccnc3ccccc23)CC1)Nc1ccc(Cl)cc1", "Group Label": "TRUE"}

Query: Record CCC(NC(=O)c1ccc(Cl)cc1)[C@H]1[C@@H]2C[C@@H](n3cnc4ccc(F)c(F)c43)C[C@@H]21 (stereo partly drawn) ; criterion: CLint scaled at 0.75 h, 1 µM no lower than 20 mL/min/kg. Met?
Reply: FALSE

Query: Please tell me: is the compound CCC(NC(=O)c1ccc(Cl)cc1)[C@H]1[C@@H]2C[C@H](Oc3ccnc4ccccc34)C[C@@H]21 (stereo partly drawn) at or over 20 mL/min/kg in terms of CLint scaled at 0.75 h, 1 µM?
Reply: TRUE

Query: Please tell me: is the compound CCC(NC(=O)c1ccc(Cl)cc1)[C@H]1[C@@H]2C[C@@H](n3cnc4cc(F)cnc43)C[C@@H]21 (stereo partly drawn) at or over 20 mL/min/kg in terms of CLint scaled at 0.75 h, 1 µM?
Reply: FALSE

Query: Entry CCC(NC(=O)c1ccc(Cl)cc1)[C@H]1[C@@H]2C[C@@H](NC(=O)c3cncc(F)c3)C[C@@H]21 (stereo partly drawn) : is its CLint scaled at 0.75 h, 1 µM no less than 20 mL/min/kg?
Reply: FALSE

Query: Identify whether the reported CLint scaled at 0.75 h, 1 µM of the following compound is 20 mL/min/kg or greater: CCC(NC(=O)c1ccc(Cl)cc1)[C@H]1[C@@H]2C[C@@H](n3cnc4ccc(F)cc43)C[C@@H]21 (stereo partly drawn)
Reply: FALSE

Query: Does the compound CCC(c1nc2cc(Cl)ccc2[nH]1)[C@H]1[C@@H]2C[C@@H](c3ccnc4ccc(F)cc34)C[C@@H]21 (stereo partly drawn) have recorded CLint scaled at 0.75 h, 1 µM that is 20 mL/min/kg or more?
Reply: FALSE

Query: Would you say CCC(NC(=O)c1ccc(Cl)cc1)[C@H]1[C@@H]2C[C@@H](n3cnc4ccncc43)C[C@@H]21 (stereo partly drawn) shows CLint scaled at 0.75 h, 1 µM at minimum 20 mL/min/kg?
Reply: FALSE

Query: Given CCC(NC(=O)c1ccc(Cl)cc1)[C@H]1[C@@H]2C[C@@H](n3cnc4ncc(C#N)cc43)C[C@@H]21 (stereo partly drawn) , state whether its CLint scaled at 0.75 h, 1 µM is at least 20 mL/min/kg.
Reply: FALSE

Query: Would you say CC(C(=O)Nc1ccc(Cl)cc1)N1CC(COc2ccnc3ccccc23)C1 (stereo not drawn) shows CLint scaled at 0.75 h, 1 µM at minimum 20 mL/min/kg?
Reply: TRUE
